# tested-on: Cathepsin S (Homo sapiens)
# assay-info: Cathepsin S inhibition, fluorogenic peptide substrate kinetic assay
# Format: biochemical
# conditions-used: Table II; Cathepsin S inhibition constant, pH5.5; read-out: Ki Cat. S
pKi: −log10 of the molar value.
measured-endpoint: pKi

// recorded pKi for CC(C(=O)N[C@@H](CC1CCCCC1)C(=O)NCCN1CCc2cc(F)ccc21)c1ccc(O)cc1 (stereo partly shown) : > 7.00

C[C@@H](CN1CCc2cc(F)ccc21)NC(=O)[C@H](CC1CCCCC1)NS(=O)(=O)c1cccc(OC(F)(F)F)c1 has a reported pKi of > 7.00

The recorded pKi for CC(C)(C)C[C@H](NC(=O)OC(C)(C)C)C(=O)N[C@@H](COCc1ccccc1)CN1CCc2cc(F)ccc21 is > 7.00

Entry under test: O=C(N[C@H](C(=O)N[C@H](CO)CN1CCc2cc(F)ccc21)c1ccc(Cl)cc1Cl)c1ccc(F)c(F)c1 . Its pKi was > 6.00

The measured pKi associated with COc1cc(COC[C@@H](CN2CCc3cc(F)ccc32)NC(=O)[C@H](CCC2CCCCC2)NC(=O)c2cccc(OC)c2)cc(OC)c1 reads > 7.00

Looking up C[C@@H](CNc1ccc(OC(F)(F)F)cc1)NC(=O)[C@H](CC1CCCCC1)NC(=O)c1cc(-c2cccc(F)c2)no1 , I see its pKi listed as > 6.00

Data point: C[C@@H](CN1CCc2cc(F)ccc21)NC(=O)[C@H](CC(C)(C)C)NC(=O)OCc1ccccc1 ; pKi = > 7.00

----------
Protein target, amino acids: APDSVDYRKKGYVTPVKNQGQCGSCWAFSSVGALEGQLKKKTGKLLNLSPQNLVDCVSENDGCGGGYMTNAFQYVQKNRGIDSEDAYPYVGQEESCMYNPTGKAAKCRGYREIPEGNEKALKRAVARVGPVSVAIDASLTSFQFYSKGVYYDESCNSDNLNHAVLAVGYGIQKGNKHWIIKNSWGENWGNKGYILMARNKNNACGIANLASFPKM
pKi: −log10 of the molar value.
measured-endpoint: pKi

Looking up C[C@@H](CNc1ccc(OC(F)(F)F)cc1)NC(=O)[C@H](CC1CCCCC1)NS(=O)(=O)c1cccc(Cl)c1 , I found its pKi recorded as < 5.00

// recorded pKi for COc1ccc(N2CCC[C@H](NC(=O)[C@H](CC(C)C)NC(=O)c3cccc(C)c3)C2)cc1 (single isomer, unassigned) : > 5.00

Lab note: C[C@@H](CNc1cc(F)ccc1F)NC(=O)[C@H](CC1CCCCC1)NC(=O)c1ccc(-c2cccc(F)c2)o1 gave pKi of > 5.00

----------
# tested-on: Cathepsin S (Homo sapiens, UniProt P25774)
# Sequence (P25774 115-331, species assumed): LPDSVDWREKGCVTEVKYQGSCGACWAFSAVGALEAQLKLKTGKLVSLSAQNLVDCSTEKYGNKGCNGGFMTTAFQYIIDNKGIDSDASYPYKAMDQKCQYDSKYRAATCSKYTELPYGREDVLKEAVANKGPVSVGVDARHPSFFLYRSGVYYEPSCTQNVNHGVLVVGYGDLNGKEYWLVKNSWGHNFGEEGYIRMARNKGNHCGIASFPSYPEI
# assay-info: Cathepsin S inhibition, fluorogenic peptide substrate kinetic assay
# Assay type: biochemical
# conditions-used: Table II; Cathepsin S inhibition constant, pH5.5; read-out: Ki Cat. S
# Excerpt: “Inhibition constant”, Ki, is the dissociation constant of the enzyme-inhibitor complex, or the reciprocal of the binding affinity of the inhibitor to the enzyme. […] The inhibited rates are then fit by nonlinear regression to the following equation: [formula] […] The inhibition constant, Ki, can be determined from the apparent inhibition constant, Ki^app, for competitive inhibitors by using the following relationship: [formula] […]
measured-endpoint: Ki

Given item O=C(C[C@@H](CN1CCc2cc(F)ccc21)NC(=O)[C@H](CC1CCCCC1)NC(=O)OCc1ccccc1)OCc1ccccc1 , the value recorded as its Ki is < 100 nM

Notebook: COc1cccc(C(=O)N[C@@H](CCC2CCCCC2)C(=O)NCCN2CCc3ccc(F)cc32)c1 , Ki read as < 10000 nM

get_value(item= O=C(N[C@@H](CC1CCCCC1)C(=O)N[C@@H](CO)CN1CCc2cc(F)ccc21)c1ccc(-c2cccc(C(F)(F)F)c2)o1 , readout=Ki) returns < 100 nM

Memo: Cc1cccc(C(=O)N[C@@H](CC2CCCCC2)C(=O)NCCN2CCc3cc(F)ccc32)c1 , reported Ki: < 100 nM
